# System: Liver
# protocol description: Unbound intrinsic clearance in human liver microsomes at 0.5 uM in presence of NADPH incubated for 5 to 30 mins by HPLC-MS/MS method
# Type: ADME, microsome
readout: CL free (mL/min/kg)

> print(dat)
                                   compound  readout  readout.number
1  O=C(NCc1ccccc1)c1ccc(NC(=O)N2Cc3ccccc3C2)cc1  CL free            58.3
2  CC(C)C[C@@H](CO)NC(=O)c1ccc(NC(=O)N2Cc3ccccc3C2)cc1  CL free            56.7
3  O=C(NCC1CCOC1)c1ccc(NC(=O)N2Cc3ccccc3C2)cc1 (stereo not drawn)  CL free            26.7

* * *

# Tested on: Liver
# protocol description: Unbound intrinsic clearance in human liver microsomes at 0.5 uM in presence of NADPH incubated for 5 to 30 mins by HPLC-MS/MS method
# Type: ADME, microsome
readout: CL free (mL/min/kg)

> print(dat)
                                 cpd.smiles  readout.number
1  CN1CCN(C(C)(C)C(=O)N2CCC(c3ccc(NC(=O)N4Cc5ccccc5C4)cc3)CC2)CC1             733
2  O=C(Nc1ccc(S(=O)(=O)c2ccccc2)cc1)N1Cc2ccccc2C1            73.3
3  O=C(NCCCCC1CCN(C(=O)c2ccccc2)CC1)N1Cc2ccccc2C1             317
4     N#CN=C(NCCCCCCOc1ccc(Cl)cc1)Nc1ccncc1             567
5  CC(C)CCNC(=O)c1ccc(NC(=O)N2Cc3ccccc3C2)cn1             217

* * *

# Test system: PC-3
# protocol description: Antiproliferative activity against human PC3 cells assessed as reduction in cell viability incubated for 5 days by Cell-titer Glo reagent based assay
# Assay type: functional
# condition summary: Homo sapiens, PC-3, 120 h
pIC50: −log10 of the molar value.
Tick true if pIC50 is 8 or greater. Tick false if pIC50 is less than 8.

> print(dat)
                                 cpd.smiles  system.under.test  assigned.category
1  CC(C)CCNC(=O)c1ccc(NC(=O)N2Cc3ccc(CO)cc3C2)cc1               PC-3               true
2  O=C(Nc1ccc(C(=O)N2CCN(c3ccccn3)CC2)cc1)N1Cc2ccccc2C1               PC-3              false
3  CC(C)CCNS(=O)(=O)c1ccc(NC(=O)N2Cc3ccccc3C2)cc1               PC-3              false
4  CC(C)CCn1cc(-c2ccc(NC(=O)N3Cc4ccccc4C3)cc2)cn1               PC-3              false
5  O=C(NCc1ccccc1)c1ccc(NC(=O)N2Cc3ccccc3C2)cc1               PC-3              false
6  CC(C)(O)CC(=O)N1CCC(c2ccc(NC(=O)N3Cc4ccc(F)cc4C3)cc2)CC1               PC-3               true

* * *

# Tested on: PC-3
# protocol description: Antiproliferative activity against human PC3 cells assessed as reduction in cell viability incubated for 5 days by Cell-titer Glo reagent based assay
# Type: functional
# condition summary: Homo sapiens, PC-3, 120 h
Each entry below carries its recorded IC50.
readout: IC50 (nM)

> print(dat)
                                 cpd.smiles  readout.number
1  O=C(NCCCCC1CCN(C(=O)c2ccccc2)CC1)N1Cc2ccccc2C1             8.4
2  Cc1ccc2c(c1)CN(C(=O)Nc1ccc(C(=O)NCCC(C)C)cc1)C2              10
3  CC1(C(=O)N2CCC(c3ccc(NC(=O)N4Cc5ccccc5C4)cc3)CC2)CC1             6.6
